Please provide measured protein stability index for the entries that follow.
B1: KLHL14 (parent)
chain: NETGYLSSVECYNLETNEWRYVSS

variants of: B1; experiment: protein stability index of a GFP-peptide fusion (GPS, HEK-293T) (PSI 1-6); higher = more stable; conditions: c terminus: a fixed tail appended;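 also: lentivirally expressed fusions sorted by FACS into six bins by GFP to DsRed ratio, PSI derived from sequencing read proportions per bin multiplied by bin number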
Give bare numbers.

Reference set (5 entries):
VARIANT_IDENTIFIER	protein stability index
R20A	2.95
E10I	1.69
E2T	2.67
V9Y	3.14
N17F	2.9

For every listed record, write down its protein stability index.
1. S24G
2. W19H
3. L6M

[3.82, 4.77, 3.45]

For every listed record, write down its protein stability index.
1. W19R
2. N1R
3. S8N
4. C11V
5. W19K
6. E15N
7. Y5M
8. E10S

4.92
2.55
4.16
2.76
5.08
3.03
3.64
1.94

For every listed record, write down its protein stability index.
1. E15H
2. N1A
3. E2S
4. Y21R
5. E18H
6. V22E
7. V22P
8. S8D

[2.42, 3.05, 2.78, 3.24, 2.94, 4.18, 3.16, 4.02]
